Experiment: MTT cell viability assay
Format: cell-based, canine
Settings: dog, Wt-MDCK cells, 1.5–50 µM, 6 h exposure, read-out: cells remaining viable
measured_property: viability at 6 h

Qu. Request the reported viability at 6 h associated with O=C1CCC(Cc2ccc(O)c(O)c2)O1 (stereo not shown)
Ans. > 90%

====

Assay: In vitro transport study across 21‐day Caco2 monolayers
Format: in vitro ADME, human
Settings: human, Caco-2; Caco2 model, secretory direction; VL 50 μM dosed (VLS formed as metabolite), controls 10 μM; N = 4; read-out: P app B–A (mean ± SD)
Counter-ions that a name gives are not always drawn.
measured_property: Papp B→A at 120 min
Give me the value, and tack the unit on after it.

Qu. Request the reported Papp B→A at 120 min associated with CC(=O)O[C@H]1C(=O)[C@@]2(C)[C@H]([C@H](OC(=O)c3ccccc3)[C@]3(O)C[C@H](OC(=O)[C@H](O)[C@@H](NC(=O)c4ccccc4)c4ccccc4)C(C)=C1C3(C)C)[C@]1(OC(C)=O)CO[C@@H]1C[C@@H]2O
Ans. 3.42 ×10⁻⁶ cm/s

Qu. Moving on to CC(C)NCC(O)COc1cccc2ccccc12 (stereo not drawn)
Ans. 13 ×10⁻⁶ cm/s

Qu. Moving on to O=C1CCC(Cc2ccc(O)c(OS(=O)(=O)O)c2)O1 (stereo not drawn) [VLS, valerolactone sulfate]
Ans. 55.4 ×10⁻⁶ cm/s

Just for reference, paper PMC11726150 is where these values come from.
